- assay_text: Coulometric EC-MS (voltammetric mass spectrometry), Phase I type EC oxidation
- Assay type: physicochemical
- stated_conditions: per product ion
- From the text: Referring to FIG. 1A, a Model 1100 LC/MSD single quadrupole mass spectrometer 10 (Agilent Technologies, Palo Alto, Calif., USA) was used in combination with a Coulochem® III ECD 12 and Model 5021 coulometric cell 14 (ESA Inc., Chelmsford, Mass., USA). Compounds are characterized via automated sequences, in which EC potential is changed from, e.g., 0-1200 mV(vs. Pd) in increments of, e.g., 200 mV. EC current and MS ion abundance at specific mass-to-charge ratios (m/z) is monitored. […]
measured_quantity: E½ (½ wave potential for product formation) (mV vs. Pd)
Numbers only; they are read as mV vs. Pd.

The cases that follow already have their E½ (½ wave potential for product formation) on record.
1. CCCCN1C[C@H](O)[C@@H](O)[C@H](O)[C@H]1CO : 1000
2. C[C@]12CC[C@@H]3c4ccc(O)c(O)c4CC[C@H]3[C@@H]1CC[C@@H]2O [4-Hydroxyestradiol] : 250
3. CSCC[C@H](N)C(=O)O : 1100
4. CC(C)NCC(O)COc1cccc2ccccc12 (stereo not drawn) : 1000
5. N[C@@H](CCS)C(=O)O : 1100

**Q:** For C[C@]12CC[C@@H]3c4cc(O)c(O)cc4CC[C@H]3[C@@H]1CC[C@@H]2O [2-Hydroxyestradiol] , what is its reported E½ (½ wave potential for product formation)?
**A:** 250

**Q:** And `COc1cc2c(cc1O)CC[C@@H]1[C@@H]2CC[C@]2(C)[C@@H](O)CC[C@@H]12` ?
**A:** 450

**Q:** And `COc1c(O)ccc2c1CC[C@@H]1[C@@H]2CC[C@]2(C)[C@@H](O)CC[C@@H]12` ?
**A:** 450

**Q:** And `CN(C)CCCN1c2ccccc2CCc2ccccc21` ?
**A:** 650
